// provenance: patent US8623429B2

Each entry below lists one item and its recorded % left, GSH 20 mg value.
Test: Example 3: stability of black currant extract anthocyanosides, 4 hours at 37° C., pH 7.0, with/without DHLA, GSH or L-cysteine (HPLC)
Format: physicochemical
Conditions: pH 7.0, 37° C., 4 hours
measurement-kind: % left, GSH 20 mg (%)

{"columns": ["compound", "unit-of-measurement", "readout-value"],
 "data": [
  ["C[C@@H]1O[C@@H](OC[C@H]2O[C@@H](Oc3cc4c(O)cc(O)cc4[o+]c3-c3cc(O)c(O)c(O)c3)[C@H](O)[C@@H](O)[C@@H]2O)[C@H](O)[C@H](O)[C@H]1O [Dp-3-O-Rut, Delphinidin-3-O-rutinoside]", "%", 53.1],
  ["OC[C@H]1O[C@@H](Oc2cc3c(O)cc(O)cc3[o+]c2-c2cc(O)c(O)c(O)c2)[C@H](O)[C@@H](O)[C@@H]1O [Dp-3O-Glc, Delphinidin 3-o-glucoside]", "%", 50.4],
  ["OC[C@H]1O[C@@H](Oc2cc3c(O)cc(O)cc3[o+]c2-c2ccc(O)c(O)c2)[C@H](O)[C@@H](O)[C@@H]1O [Cn-3O-Glc, Cyanidin 3-o-glucoside]", "%", 64.3],
  ["C[C@@H]1O[C@@H](OC[C@H]2O[C@@H](Oc3cc4c(O)cc(O)cc4[o+]c3-c3ccc(O)c(O)c3)[C@H](O)[C@@H](O)[C@@H]2O)[C@H](O)[C@H](O)[C@H]1O [Cn-3-O-Rut, Cyanidin-3-O-rutinoside]", "%", 65.0]
]}

* * *

Each entry below lists one item and its recorded Peak Area, GSH (4 hours) value.
Experiment: Example 1: stability of bilberry extract anthocyanosides, 4 hours at 37° C., pH 7.0, with/without DHLA or GSH (HPLC)
Type: physicochemical
Details: 20 mg reduced L-glutathione, pH 7.0, 37° C., 4 hours

{"columns": ["compound", "Peak Area, GSH (4 hours)"],
 "data": [
  ["Oc1cc(O)c2cc(O[C@H]3OC[C@H](O)[C@H](O)[C@H]3O)c(-c3cc(O)c(O)c(O)c3)[o+]c2c1 [Dp-3O-Ara, Delphinidin 3-o-arabinoside]", 283.6],
  ["Oc1cc(O)c2cc(O[C@@H]3OC[C@H](O)[C@H](O)[C@H]3O)c(-c3ccc(O)c(O)c3)[o+]c2c1 [Cn-3O-Ara, Cyanidin 3-o-arabinoside]", 293.7],
  ["COc1cc(-c2[o+]c3cc(O)cc(O)c3cc2O[C@@H]2O[C@H](CO)[C@H](O)[C@H](O)[C@H]2O)cc(OC)c1O [Mv-3O-Gal, Malvidin 3-o-galactoside]", 133.2]
]}

* * *

Assay: Example 5: degradation over time of black currant anthocyanosides at 37° C., pH 7.0, with/without GSH (HPLC)
Assay type: physicochemical
Conditions: GSH protected sample (20 mg), pH 7.0, 37° C., 3:15 h
Description: Sample a) 60 mg black currant extract [35% anthocyanosides] (0.037 mmol anthocyanosides expressed as cyanidin-3-O-rutinoside) were added to a 100 ml flask, filled to volume with sodium phosphate buffer (5% [w/w], pH=7.0) and stirred until dissolution was complete. A 1 ml sample was taken immediately, acidified with formic acid to pH=1.0 and analyzed by HPLC for the content of anthocyanosides. The remaining solution was kept at 37° C. […] The samples were analyzed for selected anthocyanosides by HPLC. […]
measurement-kind: Peak Area

{"columns": ["molecule", "readout-value"],
 "data": [
  ["OC[C@H]1O[C@@H](Oc2cc3c(O)cc(O)cc3[o+]c2-c2cc(O)c(O)c(O)c2)[C@H](O)[C@@H](O)[C@@H]1O [Dp-3O-Glc, Delphinidin 3-o-glucoside]", 812.5],
  ["C[C@@H]1O[C@@H](OC[C@H]2O[C@@H](Oc3cc4c(O)cc(O)cc4[o+]c3-c3ccc(O)c(O)c3)[C@H](O)[C@@H](O)[C@@H]2O)[C@H](O)[C@H](O)[C@H]1O [Cn-3-O-Rut, Cyanidin-3-O-rutinoside]", 2366.8],
  ["OC[C@H]1O[C@@H](Oc2cc3c(O)cc(O)cc3[o+]c2-c2ccc(O)c(O)c2)[C@H](O)[C@@H](O)[C@@H]1O [Cn-3O-Glc, Cyanidin 3-o-glucoside]", 325.6],
  ["C[C@@H]1O[C@@H](OC[C@H]2O[C@@H](Oc3cc4c(O)cc(O)cc4[o+]c3-c3cc(O)c(O)c(O)c3)[C@H](O)[C@@H](O)[C@@H]2O)[C@H](O)[C@H](O)[C@H]1O [Dp-3-O-Rut, Delphinidin-3-O-rutinoside]", 2993.9]
]}
